For each of the binders below, state its Kd.
target: SARS-CoV-2 Receptor Binding Domain (RBD) protein (SARS-CoV-2, UniProt P0DTC2 319-541); assay: SPR, scFv captured via anti-V5, RBD as analyte

Some entries whose results are on file:
COVID19_P20_C11 (scFv, V domains shown) VH: EVQLVESGGGLVQPGGSLRLSCAASGFTFSSYSMNWVRQAPGKGLEWVSGISGSGDRTYYADSVKGRFTISRDNSKNTLYLQMNSLRAEDTAVYYCSMQRDNSRDYFPHYFHDMDVWGQGTLVTVSS VL: DIVMTQSPLSLPVTPGEPASISCRSSQSLLYSDGDTYLDWYLQKPGQSPQLLIYLGSIRAPGVPDRFSGSGSGTDFTLKISRVEAEDVGVYYCMQSVQTPWTFGGGTKVEIKR ... < 50 nM
COVID19_P07_G06 (scFv, V domains shown) VH: EVQLVESGGGLVQPGGSLRLSCAASGFTFSSYAMHWVRQAPGKGLEWVSAIGAGGGTYYADSVKGRFTISRDNSKNTLYLQMNSLRAEDTAVYYCVTNLDNSRDYFPHYFHDMDVWGQGTLVTVSS VL: DIVMTQSPLSLPVTPGEPASISCRSSQSLLHSNGYNYLDWYLQKPGQSPQLLIYGASTRATGVPDRFSGSGSGTDFTLKISRVEAEDVGVYYCMQTLQTPRFGGGTKVEIKR ... < 50 nM

The record that follows has no Kd shown yet.
Consider the binder COVID19_P08_B11 (scFv, V domains shown) VH: EVQLVESGGGLVQPGGSLRLSCAASGFTFSSYGMHWIRQAPGKGLEWVSAVSASGDRTHYADSVKGRFTISRDNSKNTLYLQMNSLRAEDTAVYYCVTNLDNSRDYFPHYFHDMDVWGQGTLVTVSS VL: DIVMTQSPLSLPVTPGEPASISCRSSQSLLHSNGYNRLAWYLQKPGQSPQLLIYLGSYRASGVPDRFSGSGSGTDFTLKISRVEAEDVGVYYCMQALQTPSFGGGTKVEIKR and give its recorded Kd.
< 50 nM

Where these numbers come from: patent US11053304
